B1: TFE3 (parent)
chain: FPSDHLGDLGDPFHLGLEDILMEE

Variants of: B1
Experiment: protein stability index of a GFP-peptide fusion (GPS, HEK-293T) (PSI 1-6); higher = more stable;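 note: lentivirally expressed fusions sorted by FACS into six bins by GFP to DsRed ratio, PSI derived from sequencing read proportions per bin multiplied by bin number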
Details: c terminus: a fixed tail appended
ENDPOINT: protein stability index
The reply should be a number, written without any unit.

The examples below pair each entry with its known result.
{"MUTATIONS": "S3Q", "protein stability index": 3.57}
{"MUTATIONS": "P2L", "protein stability index": 3.37}
{"MUTATIONS": "L15A", "protein stability index": 4.29}
{"MUTATIONS": "E18S", "protein stability index": 3.51}
{"MUTATIONS": "I20S", "protein stability index": 3.7}
{"MUTATIONS": "E23D", "protein stability index": 2.86}

stdin: What does the record list as protein stability index for `H5F` ?
stdout: 3.28

stdin: Give the measured protein stability index of `G7Q` .
stdout: 3.67

stdin: Find the recorded protein stability index belonging to `D19W` and report it.
stdout: 2.16

stdin: What does the data say about its protein stability index? Entry: `P2V`
stdout: 1.5

stdin: I am curious: what protein stability index value has been reported for `L15D` ?
stdout: 4.45

stdin: Quick check: protein stability index of `I20Q` ?
stdout: 4.37

stdin: For the variant shown here, `E24A` , give the reported protein stability index.
stdout: 2.64

stdin: Look up protein stability index: `P2G`
stdout: 3.62

stdin: Returns the measured protein stability index for the input variant. Input: `L17Y`
stdout: 3.46

stdin: Name the recorded protein stability index for `L6Y` .
stdout: 2.78
